Kindly state solubility for each of the entries shown.
# MEASUREMENT DESCRIPTION: UV-measured solubility of 5-HTP and carbidopa
# Type: physicochemical
# CONDITION NOTES: Kolliphor RH40 (5% in water), aqueous with cosolvent or surfactant or cyclodextrin
The response must be a number in µg/mL with no trailing unit.

Ask: Which solubility value is on record for N[C@@H](Cc1c[nH]c2ccc(O)cc12)C(=O)O ?
Reply: 9500

Ask: What does the data say about its solubility? Entry: C[C@@](Cc1ccc(O)c(O)c1)(NN)C(=O)O
Reply: 1500

---

For each of the molecules below, state its solubility.
# MEASUREMENT DESCRIPTION: UV-measured solubility of 5-HTP and carbidopa
# Assay type: physicochemical
# CONDITION NOTES: Solutol HS15 (5% in water), aqueous with cosolvent or surfactant or cyclodextrin
Output spec: scalar in µg/mL, unitless text.

Ask: Can you share its solubility? I mean this molecule: N[C@@H](Cc1c[nH]c2ccc(O)cc12)C(=O)O [5-HTP]
Reply: 9000

Ask: Can you look up the measured solubility of C[C@@](Cc1ccc(O)c(O)c1)(NN)C(=O)O [Carbidopa] for me?
Reply: 1400

---

# MEASUREMENT DESCRIPTION: UV-measured solubility of 5-HTP and carbidopa
# Type: physicochemical
# CONDITION NOTES: Transcutol HP, organic solvent or mixture
TEST READOUT: solubility (µg/mL)
Reply with just the number (in µg/mL).

Ask: Tell me the measured solubility of C[C@@](Cc1ccc(O)c(O)c1)(NN)C(=O)O , please.
Reply: 600

Ask: Entry N[C@@H](Cc1c[nH]c2ccc(O)cc12)C(=O)O : reported solubility = ?
Reply: 13700

---

Assign solubility to each entry below.
# MEASUREMENT DESCRIPTION: UV-measured solubility of 5-HTP and carbidopa
# Format: physicochemical
# CONDITION NOTES: Sepiclear (5% in water), aqueous with cosolvent or surfactant or cyclodextrin
I only need the number, in mg/mL, no unit after it.

Ask: Any idea what solubility was measured for N[C@@H](Cc1c[nH]c2ccc(O)cc12)C(=O)O ?
Reply: 14.5

Ask: Name the reported solubility value associated with the molecule C[C@@](Cc1ccc(O)c(O)c1)(NN)C(=O)O
Reply: 3.1

---

For each entry below, report its solubility value.
# MEASUREMENT DESCRIPTION: UV-measured solubility of 5-HTP and carbidopa
# Assay type: physicochemical
# CONDITION NOTES: 20% w/v HP-β-cyclodextrin in water (Kleptose), aqueous with cosolvent or surfactant or cyclodextrin; 20% w/v HP-β-cydodextrin in water (Kleptose)
Record the value in mg/mL, omitting the unit from your answer.

Ask: For the molecule N[C@@H](Cc1c[nH]c2ccc(O)cc12)C(=O)O , what solubility is on record?
Reply: 17

Ask: Which solubility reading was recorded for the molecule C[C@@](Cc1ccc(O)c(O)c1)(NN)C(=O)O ?
Reply: 3.1

---

Record form. Attribute: solubility. Fill in for each entry.
# MEASUREMENT DESCRIPTION: UV-measured solubility of 5-HTP and carbidopa
# Type: physicochemical
# CONDITION NOTES: PEG400, organic solvent or mixture
# number only, unit µg/mL dropped from output

Ask: Tell me the measured solubility of C[C@@](Cc1ccc(O)c(O)c1)(NN)C(=O)O , please.
Reply: 1500

Ask: Could you tell me which solubility is on file for N[C@@H](Cc1c[nH]c2ccc(O)cc12)C(=O)O ?
Reply: 2300

---

# MEASUREMENT DESCRIPTION: UV-measured solubility of 5-HTP and carbidopa
# Assay type: physicochemical
# CONDITION NOTES: 5% Soluplus in water, aqueous with cosolvent or surfactant or cyclodextrin
TEST READOUT: solubility (mg/mL)
Your answer is read as mg/mL, so omit the unit and give the number.

Ask: What does the record list as solubility for C[C@@](Cc1ccc(O)c(O)c1)(NN)C(=O)O ?
Reply: 12.9

Ask: For N[C@@H](Cc1c[nH]c2ccc(O)cc12)C(=O)O , what is its reported solubility?
Reply: 12.4

---

# MEASUREMENT DESCRIPTION: UV-measured solubility of 5-HTP and carbidopa
# Format: physicochemical
# CONDITION NOTES: 0.1N HCl, simulated gastric fluid; 0.1N HCI
TEST READOUT: solubility (mg/mL)
Just the number please, in mg/mL, no unit attached.

Ask: Find the recorded solubility belonging to C[C@@](Cc1ccc(O)c(O)c1)(NN)C(=O)O and report it.
Reply: 11.8

Ask: Could you tell me which solubility is on file for N[C@@H](Cc1c[nH]c2ccc(O)cc12)C(=O)O ?
Reply: 29.4

---

Task for the reader: assign each of the following molecules its reported solubility.
# MEASUREMENT DESCRIPTION: UV-measured solubility of 5-HTP and carbidopa
# Type: physicochemical
# CONDITION NOTES: Polysorbate 20 (5% in water), aqueous with cosolvent or surfactant or cyclodextrin
# Procedure: The individual solubility of 5-HTP and carbidopa was assessed and compared to the data in the literature. Table 2. Solubility results
Respond with the figure and its unit, in that order.

Ask: If you can, please state the reported solubility value of N[C@@H](Cc1c[nH]c2ccc(O)cc12)C(=O)O .
Reply: 9400 µg/mL

Ask: Using the record for C[C@@](Cc1ccc(O)c(O)c1)(NN)C(=O)O , report its solubility.
Reply: 1400 µg/mL

---

# MEASUREMENT DESCRIPTION: UV-measured solubility of 5-HTP and carbidopa
# Assay type: physicochemical
# CONDITION NOTES: Propylene glycol, organic solvent or mixture
Exercise: state measured solubility for each of the compounds provided.
Field: numeric (mg/mL). Do not append units.

Ask: Would you kindly share the measured solubility for C[C@@](Cc1ccc(O)c(O)c1)(NN)C(=O)O ?
Reply: 15

Ask: Form field: reported solubility of N[C@@H](Cc1c[nH]c2ccc(O)cc12)C(=O)O
Reply: 35.4

---

# MEASUREMENT DESCRIPTION: UV-measured solubility of 5-HTP and carbidopa
# Type: physicochemical
# CONDITION NOTES: oil or lipid; Sunflower oil; accurate measurement not possible due to diverging spectrum
TEST READOUT: solubility

Ask: Look up solubility for this compound: N[C@@H](Cc1c[nH]c2ccc(O)cc12)C(=O)O
Reply: < 10000 µg/mL

Ask: Please look up its solubility: C[C@@](Cc1ccc(O)c(O)c1)(NN)C(=O)O
Reply: < 10000 µg/mL

---

For each of the compounds below, state its solubility.
# MEASUREMENT DESCRIPTION: UV-measured solubility of 5-HTP and carbidopa
# Type: physicochemical
# CONDITION NOTES: pH 6.8, aqueous buffer; Phosphate buffer, pH6.8
All answers are understood in µg/mL, so give the number only.

Ask: Using the record for C[C@@](Cc1ccc(O)c(O)c1)(NN)C(=O)O [Carbidopa] , report its solubility.
Reply: 2100

Ask: Report solubility for N[C@@H](Cc1c[nH]c2ccc(O)cc12)C(=O)O [5-HTP] please.
Reply: 8900

---

I'd be grateful if you could share measured solubility for these entries.
# MEASUREMENT DESCRIPTION: UV-measured solubility of 5-HTP and carbidopa
# Format: physicochemical
# CONDITION NOTES: 10% w/v M-β-cyclodextrin in water (Kleptose crysmeb), aqueous with cosolvent or surfactant or cyclodextrin
Record the value in µg/mL, omitting the unit from your answer.

Ask: I have this molecule here, N[C@@H](Cc1c[nH]c2ccc(O)cc12)C(=O)O [5-HTP] , and I need its recorded solubility.
Reply: 13500

Ask: Entry under review: C[C@@](Cc1ccc(O)c(O)c1)(NN)C(=O)O [Carbidopa] . Reported solubility?
Reply: 2800

---

# MEASUREMENT DESCRIPTION: UV-measured solubility of 5-HTP and carbidopa
# Assay type: physicochemical
# CONDITION NOTES: pH 9, aqueous buffer; Phosphate buffer, pH9
TEST READOUT: solubility (µg/mL)
Number only, in µg/mL; omit the unit.

Ask: // lookup solubility for N[C@@H](Cc1c[nH]c2ccc(O)cc12)C(=O)O
Reply: 9300

Ask: // lookup solubility for C[C@@](Cc1ccc(O)c(O)c1)(NN)C(=O)O
Reply: 4700
